- Target Entity: T1, human NRP2 variant 2 (hNRP2), untagged, on Expi293 cells (Human, UniProt O60462 23-931)
- T1 construct: Transcript NM_003872 / NP_003863.2; also called Expi293-hNRP2 clonal cells; Human NRP2a (version 2)
- T1 sequence: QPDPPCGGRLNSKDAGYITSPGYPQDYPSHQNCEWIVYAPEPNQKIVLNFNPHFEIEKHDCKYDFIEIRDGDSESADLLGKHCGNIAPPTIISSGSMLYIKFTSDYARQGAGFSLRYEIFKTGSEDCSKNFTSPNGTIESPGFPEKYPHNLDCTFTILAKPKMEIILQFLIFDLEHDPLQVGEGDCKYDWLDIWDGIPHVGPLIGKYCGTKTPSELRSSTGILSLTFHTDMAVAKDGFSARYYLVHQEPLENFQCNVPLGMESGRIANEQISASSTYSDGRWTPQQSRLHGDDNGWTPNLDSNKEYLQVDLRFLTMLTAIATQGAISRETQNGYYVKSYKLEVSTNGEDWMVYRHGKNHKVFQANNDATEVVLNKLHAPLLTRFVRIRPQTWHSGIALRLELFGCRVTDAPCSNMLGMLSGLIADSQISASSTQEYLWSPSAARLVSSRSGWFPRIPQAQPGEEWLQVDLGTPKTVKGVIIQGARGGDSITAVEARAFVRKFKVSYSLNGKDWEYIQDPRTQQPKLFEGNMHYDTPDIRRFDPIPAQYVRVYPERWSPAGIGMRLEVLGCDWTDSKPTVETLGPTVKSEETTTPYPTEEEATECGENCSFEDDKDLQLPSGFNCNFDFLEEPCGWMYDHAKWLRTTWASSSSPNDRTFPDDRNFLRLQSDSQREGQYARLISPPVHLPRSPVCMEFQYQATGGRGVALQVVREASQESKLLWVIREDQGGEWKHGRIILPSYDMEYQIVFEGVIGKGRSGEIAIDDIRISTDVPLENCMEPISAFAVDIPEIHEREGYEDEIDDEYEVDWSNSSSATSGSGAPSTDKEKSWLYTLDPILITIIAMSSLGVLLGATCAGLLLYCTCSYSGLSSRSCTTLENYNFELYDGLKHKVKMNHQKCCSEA
- Assay Remarks: flow cytometry on Expi293-hNRP2 clonal cells
Quantity: EC50 (nM)
The response must be a number in nM with no trailing unit.

EC50 for aNRP2-10v13 (antibody, V domains shown) VH: EVQLVQSGAEVKKPGATVKISCKVSGFNIKDYYVHWVQQAPGKGLEWMGRIDVHDDETKYAPKFQGRVTITADTSTDTAYMELSSLRSEDTAVYYCATPIYGAREAWFAYWGQGTLVTVSS VL: DIQMTQSPSSLSASVGDRVTITCTASSSVSSSYLHWYQQKPGKAPKLLIYRTSNLASGVPSRFSGSGSGTDFTLTISSLQPEDFATYYCHQYYRSPPTFGGGTKVEIK is 0.65
